These entries and their values trace back to patent US20210155689A1.

Target: T1, hFc tagged monkey LAG-3 protein (cLAG-3-hFc protein) (monkey; human)
T1 construct: Made in HEK293 cells; also called monkey LAG-3 extracellular domain protein; not shown: human IgG Fc fragment (hFc) of the pCpC vector
T1 chain: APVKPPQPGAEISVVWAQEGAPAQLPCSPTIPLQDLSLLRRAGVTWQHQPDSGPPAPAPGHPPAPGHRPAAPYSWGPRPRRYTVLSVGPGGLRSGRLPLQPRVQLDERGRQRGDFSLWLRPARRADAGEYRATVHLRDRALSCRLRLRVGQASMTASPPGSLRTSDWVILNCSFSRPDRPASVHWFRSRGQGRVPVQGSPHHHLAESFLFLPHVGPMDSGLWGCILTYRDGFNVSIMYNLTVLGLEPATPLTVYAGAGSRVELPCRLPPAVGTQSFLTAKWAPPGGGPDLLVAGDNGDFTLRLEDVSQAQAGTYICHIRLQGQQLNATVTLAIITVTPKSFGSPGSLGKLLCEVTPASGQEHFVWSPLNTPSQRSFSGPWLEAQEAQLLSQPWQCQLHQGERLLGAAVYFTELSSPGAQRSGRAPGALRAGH
Assay: ELISA, cLAG-3-hFc coated; 6.6667 nM
readout: OD450 (OD450)
Number in OD450, nothing else.

Below, each entry is followed by its recorded OD450 result.
- binder: "409B11E12 (LAG-3 mouse-human chimeric antibody) (antibody, V domains shown) VH: QVQLQQSGAELVRPGASVTLSCKASGYTFTDYEMHWVKQTTVHGLEWIGATDPETSYSAYNQKFKGKAILTADKSSSTAYMELRSLTSEDSAVYYCIATGWNDWGQGTSLTVSS VL: DLKMTQSPSSMYASLGERVTITCKASQDINSYLSWFQQKPGKSPKTLIYRANRLLDGVPSRFSGSGSGQDYSLTISSLEYEDMGIYYCLQYDEFPYTFGGGTKLEIK"
  reported measurement: 3.47
- binder: "409D4E10 (LAG-3 mouse-human chimeric antibody) (antibody, V domains shown) VH: QVQLQQSGAELVRPGASVTLSCKASGNTFTDYEMHWVKQTPVHGLEWIGATDPETDNTAYNQKFKGKAILTTDKSSSTAYMELRSLTSEDSAVYYCITSGWNDWGQGTSLTVSS VL: DIKMTQSPSSMYASLGERVTITCKASQDINSYLSWFQQKPGKSPKTLIYRANRLLDGVPSRFSGSGSGQDYSLTISSLEYEDMGIYYCLQYNEFPYTFGGGTKLEIK"
  reported measurement: 3.79

Field: next binder
Complete the entry with OD450 for 405B8H3 (LAG-3 mouse-human chimeric antibody) (antibody, V domains shown, also called mouse-human chimeric antibody 405B8H3) VH: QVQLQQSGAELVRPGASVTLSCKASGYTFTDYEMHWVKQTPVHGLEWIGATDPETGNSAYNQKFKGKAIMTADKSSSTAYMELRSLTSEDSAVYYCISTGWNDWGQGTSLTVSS VL: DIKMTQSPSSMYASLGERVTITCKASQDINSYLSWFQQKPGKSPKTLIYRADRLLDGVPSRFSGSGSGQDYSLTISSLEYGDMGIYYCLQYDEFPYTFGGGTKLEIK
3.55
